- System: blood-flow to the myocardium
- assay-procedure: Effect on blood-flow to the myocardium, anaesthetized dogs, intravenous
- Format: in vivo, dog
- particulars: dose 5 mg/kg i.v., anaesthetized dog
Think of 40 min as a floor: if Time required to decrease to 50% (duration of effect) stands on it or above, it is Satisfied; beneath it, Not satisfied.

compound="CCCCN(CCCC)CCCOc1ccc(C(=O)c2c(C(C)C)c(Br)c3ccccn23)cc1Cl [Br/Cl/H/iso-C3H7/n-C4H9/3]" class_assignment="Not satisfied"
compound="CCCCc1cc2ccccn2c1C(=O)c1ccc(OCCCN(CCCC)CCCC)c(Cl)c1 [H/Cl/H/n-C4H9/n-C4H9/3]" class_assignment="Not satisfied"
compound="CCCCc1cc2ccccn2c1C(=O)c1ccc(OCCCN(CCCC)CCCC)c(Br)c1 [H/Br/H/n-C4H9/n-C4H9/3]" class_assignment=Satisfied
compound="CCCN(CCC)CCCOc1ccc(C(=O)c2c(C(C)C)cc3ccccn23)cc1Cl [H/Cl/H/iso-C3H7/n-C3H7/3]" class_assignment=Satisfied

Taken from patent US4520026A.
